Molecular target: Cytochrome P450 3A4 (Homo sapiens) (UniProt P08684)
Sequence (P08684 whole entry, looked up): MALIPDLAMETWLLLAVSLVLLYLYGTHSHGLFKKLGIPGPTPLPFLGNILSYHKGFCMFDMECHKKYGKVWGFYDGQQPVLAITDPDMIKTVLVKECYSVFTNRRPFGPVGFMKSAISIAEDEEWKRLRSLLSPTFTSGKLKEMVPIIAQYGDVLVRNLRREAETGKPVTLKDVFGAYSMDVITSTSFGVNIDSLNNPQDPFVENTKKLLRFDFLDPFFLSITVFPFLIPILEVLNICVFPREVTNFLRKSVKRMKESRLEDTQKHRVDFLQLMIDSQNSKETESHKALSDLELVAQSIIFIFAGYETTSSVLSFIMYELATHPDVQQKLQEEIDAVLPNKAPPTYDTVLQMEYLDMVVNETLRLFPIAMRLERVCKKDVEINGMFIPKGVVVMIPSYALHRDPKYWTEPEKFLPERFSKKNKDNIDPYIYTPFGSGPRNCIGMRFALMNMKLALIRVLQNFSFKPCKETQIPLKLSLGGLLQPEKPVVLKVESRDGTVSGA
Experiment: Cytochrome panel assay with activity outcomes
Details: recombinant CYP, pro-luciferin dealkylation, luminescence, p450-cyp3a4; series mostly up to 57.1 µM
Procedure: The P450 gene superfamily is involved in the metabolism and clearance of xenobiotics. This assay used various human CYP P450 isozymes to measure the dealkylation of various pro-luciferin substrates to luciferin. The luciferin is then measured by luminescence after the addition of a luciferase detection reagent. […] Inhibitors and some substrates limit the production of luciferin, and decrease measured luminescence. […] 8, Detection, 1 sec, ViewLux luminescent read […]
The campaign covered roughly 16,000 compounds. About 5,100 (32%) were called active. Inconclusive results (about 25%) are left out. The call rests on the fitted dose curve; in most records, active means well fitted curve in the direction sought with a large enough effect; inconclusive means small, poorly fitted or top-dose-only effect, or effect the other way; inactive means no such curve, though single readings can be large or run the other way. Some of the results follow.
Would you mind answering with one of these outcomes? active, inactive

[
  {
    "mol": "CC(/C=C1\\N=C(SCc2ccccc2Cl)SC1=O)=C\\c1ccccc1",
    "tested-system": "Cytochrome P450 3A4 (Homo sapiens) (UniProt P08684)",
    "group": "active"
  },
  {
    "mol": "Cc1ccc(S(=O)(=O)CCC(=O)Nc2nc3c(s2)CCCC3)cc1",
    "tested-system": "Cytochrome P450 3A4 (Homo sapiens) (UniProt P08684)",
    "group": "active"
  },
  {
    "mol": "COc1ccc(Oc2ncc3nc(-c4cn(C)c5ccccc45)c(=O)n(C4CC4)c3n2)cc1",
    "tested-system": "Cytochrome P450 3A4 (Homo sapiens) (UniProt P08684)",
    "group": "active"
  }
]

Called result for COc1ccc(NC(C)=O)cc1NC(=O)CN1CCN(C2c3ccccc3-c3ccccc32)CC1 active

Query: recorded result category for COCCn1c(=O)c(-c2cn(C)c3ccccc23)nc2cnc(Oc3ccc(OC)cc3)nc21 in this test active

Answer briefly: the call reported for COCCn1c(=O)c(-c2cn(C)c3ccccc23)nc2cnc(Oc3ccccc3)nc21 in this assay. active

Lab log entry: Clc1ccccc1CSc1nnc(/C=C/c2ccccc2)o1 — outcome as called in the assay? inactive

Tell me the recorded outcome of this test for O=C(O)c1cc(=O)c2c(Cl)cc(Cl)cc2[nH]1 . inactive

Per the records of this test, what outcome belongs to CC(=O)N1CCc2cc(S(=O)(=O)CCC(=O)Nc3c(C)n(C)n(-c4ccccc4)c3=O)ccc21 ? inactive

Recorded test call requested for NNC(=O)Cc1cccnc1 active

----------
Biological target: Cytochrome P450 3A4 (Homo sapiens) (UniProt P08684)
Experiment: Cytochrome panel assay with activity outcomes
Conditions: recombinant CYP, pro-luciferin dealkylation, luminescence, p450-cyp3a4; series mostly up to 57.1 µM
The campaign covered roughly 16,000 compounds. About 5,100 (32%) were called active. Roughly 25% stayed inconclusive and do not appear here. The list shows a part of the results.
measured-attribute: AC50

Worked cases, answers included:
[
  {
    "compound": "C[N+](C)(C)CCOC(N)=O",
    "tested-system": "Cytochrome P450 3A4 (Homo sapiens) (UniProt P08684)",
    "AC50": "inactive"
  },
  {
    "compound": "O=C(c1ccncc1)N1CCC2(CCCN(Cc3ccncc3)C2)CC1",
    "tested-system": "Cytochrome P450 3A4 (Homo sapiens) (UniProt P08684)",
    "AC50": "5.01 µM (active)"
  },
  {
    "compound": "CNc1ncnc2c1ncn2[C@@H]1O[C@H](CO)[C@@H](O)[C@@H]1O",
    "tested-system": "Cytochrome P450 3A4 (Homo sapiens) (UniProt P08684)",
    "AC50": "inactive"
  },
  {
    "compound": "CO[C@H]1[C@@H](OC(N)=O)[C@H](O)[C@@H](Oc2ccc3c(O)c(NC(=O)c4ccc(O)c(CC=C(C)C)c4)c(=O)oc3c2C)OC1(C)C",
    "tested-system": "Cytochrome P450 3A4 (Homo sapiens) (UniProt P08684)",
    "AC50": "inactive"
  },
  {
    "compound": "C#CCN1C(C)=C(C(=O)OC)[C@@H](c2cccc([N+](=O)[O-])c2)C(C(=O)OCC)=C1C",
    "tested-system": "Cytochrome P450 3A4 (Homo sapiens) (UniProt P08684)",
    "AC50": "3.16 µM (active)"
  }
]

Fill in: AC50 of COc1ccc(C(=O)N2CCC3(CCCN(C)C3)CC2)cc1 is ___ inactive

What does the data say about its AC50? Entry: O=C(c1ccncc1)N1CCC2(CCN(Cc3ccccc3)CC2)CC1 15.8 µM (active)

Give the measured AC50 of Clc1cccc(Cl)c1NC1=NCCN1 . inactive

Given the entry COCC(C)NCc1cccc([N+](=O)[O-])c1 (stereo unspecified) , report its measured AC50. inactive

Query (compound): O=C(c1cccc(F)c1)N1CCC2(CCN(Cc3ccccc3)CC2)CC1 ; field requested: AC50 inactive

// query AC50 value for entry COc1ccc(C(=O)N2CCC3(CCCN(Cc4ccncc4)C3)CC2)cc1 7.94 µM (active)
